# target entity: Nonstructural protein 5A (Hepatitis C virus) (UniProt Q5L478)
# measurement description: Inhibition of HCV GT3a NS5A assessed as suppression of replicon RNA level by real-time PCR analysis
# cond: Hepatitis C virus subtype 3a
measured attribute: EC90 (nM)
Provide the reading as a plain figure in nM.

(Q) Dear colleague, I am looking for the recorded EC90 of the following compound: COC(=O)N[C@H](C(=O)N1C[C@H](F)C[C@H]1c1ncc(-c2cc(F)c3c(c2)OC(c2cccc(O[C@@H]4CCOC4)c2)n2c-3cc3cc(-c4cnc([C@@H]5C[C@@H](F)CN5C(=O)[C@@H](NC(=O)OC)C(C)C)[nH]4)ccc32)[nH]1)C(C)C (mixture of isomers)
(A) 2

More entries:
(Q) Data request, read-out EC90, for COC(=O)N[C@H](C(=O)N1C[C@H](F)C[C@H]1c1ncc(-c2cc(F)c3c(c2)OC(c2ccccc2)n2c-3cc3cc(-c4cnc([C@@H]5C[C@@H](F)CN5C(=O)[C@@H](NC(=O)OC)C(C)C)[nH]4)ccc32)[nH]1)C(C)C (mixture of isomers)
(A) 0.8

(Q) Cool, now COC(=O)N[C@H](C(=O)N1CCC[C@H]1c1ncc(-c2ccc3c(c2)OC(c2cc(Cl)cc(OC)c2)n2c-3cc3cc(-c4cnc([C@@H]5CCCN5C(=O)[C@@H](NC(=O)OC)C(C)C)[nH]4)ccc32)[nH]1)C(C)C (mixture of isomers)
(A) 0.8

* * *

# target entity: Nonstructural protein 5A (Hepatitis C virus) (UniProt Q5L478)
# Sequence (whole entry): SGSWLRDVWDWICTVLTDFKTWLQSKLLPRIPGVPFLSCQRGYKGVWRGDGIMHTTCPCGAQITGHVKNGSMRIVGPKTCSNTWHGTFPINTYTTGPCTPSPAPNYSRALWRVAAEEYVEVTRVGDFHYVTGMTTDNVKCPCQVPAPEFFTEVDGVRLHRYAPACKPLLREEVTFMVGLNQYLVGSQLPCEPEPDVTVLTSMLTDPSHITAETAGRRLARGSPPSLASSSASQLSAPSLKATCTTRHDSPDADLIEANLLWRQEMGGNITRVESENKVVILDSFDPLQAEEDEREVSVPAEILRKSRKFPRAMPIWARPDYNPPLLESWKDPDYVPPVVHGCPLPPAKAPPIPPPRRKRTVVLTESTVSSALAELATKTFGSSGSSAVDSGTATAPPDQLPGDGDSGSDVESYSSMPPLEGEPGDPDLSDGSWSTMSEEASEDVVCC
# measurement description: Inhibition of HCV GT3a NS5A assessed as suppression of replicon RNA level by real-time PCR analysis
# cond: Hepatitis C virus subtype 3a
The compounds listed here are annotated with their EC90.
I only need the number, in nM, no unit after it.

Observe how each entry below is paired with its result.
(Q) Name the recorded EC90 for COC(=O)N[C@H](C(=O)N1CCC[C@H]1c1ncc(-c2cc(F)c3c(c2)OC(c2cc(OC)cc(OC)c2)n2c-3cc3cc(-c4cnc([C@@H]5CCCN5C(=O)[C@@H](NC(=O)OC)C(C)C)[nH]4)ccc32)[nH]1)C(C)C (stereo not given in full) .
(A) 0.06

(Q) Another compound: COC(=O)N[C@H](C(=O)N1CCC[C@H]1c1ncc(-c2ccc3c(c2)cc2n3C(c3cccc(OC)c3)Oc3cc(-c4cnc([C@@H]5C[C@@H](F)CN5C(=O)[C@@H](NC(=O)OC)C(C)C)[nH]4)cc(F)c3-2)[nH]1)C(C)C (stereo not given in full)
(A) 0.1

Next:
(Q) # get_value(readout='EC90', item= COC(=O)N[C@H](C(=O)N1CCC[C@H]1c1ncc(-c2ccc3c(c2)OCn2c-3cc3cc(-c4cnc([C@@H]5CCCN5C(=O)[C@@H](NC(=O)OC)C(C)C)[nH]4)ccc32)[nH]1)C(C)C )
(A) 1

(Q) // next record COC(=O)N[C@H](C(=O)N1CCC[C@H]1c1ncc(-c2ccc3c(c2)cc2n3C(c3cccc(OC(C)C)c3)Oc3cc(-c4cnc([C@@H]5C[C@@H](F)CN5C(=O)[C@@H](NC(=O)OC)C(C)C)[nH]4)cc(F)c3-2)[nH]1)C(C)C (stereo not given in full)
(A) 0.07

(Q) Item: COC(=O)N[C@H](C(=O)N1CCC[C@H]1c1ncc(-c2cc(F)c3c(c2)OC(c2cccc(OC(C)C)c2)n2c-3cc3cc(-c4cnc([C@@H]5CCCN5C(=O)[C@@H](NC(=O)OC)C(C)C)[nH]4)ccc32)[nH]1)C(C)C (stereo not given in full)
(A) 0.05

* * *

# Tested on: Nonstructural protein 5A (Hepatitis C virus), Q5L478 [UNDEFINED MUTATION]
# measurement description: Inhibition of HCV GT1a NS5A L31V mutant assessed as suppression of replicon RNA level by real-time PCR analysis
# cond: Hepatitis C virus subtype 1a
# maps each entry to its EC90
State just the number; it will be interpreted in nM.

Known results for compounds:
(Q) What value of measured EC90 is listed for COC(=O)N[C@H](C(=O)N1CCC[C@H]1c1ncc(-c2ccc3c(c2)OC(c2ccccc2)n2c-3c(F)c3cc(-c4cnc([C@@H]5C[C@@H](F)CN5C(=O)[C@@H](NC(=O)OC)C(C)C)[nH]4)ccc32)[nH]1)C(C)C (mixture of isomers) ?
(A) 2

(Q) Also check COC(=O)N[C@H](C(=O)N1CCC[C@H]1c1ncc(-c2cc(F)c3c(c2)OC(c2cccc(OC)c2)n2c-3cc3cc(-c4cnc([C@@H]5CCCN5C(=O)[C@@H](NC(=O)OC)C(C)C)[nH]4)ccc32)[nH]1)C(C)C (stereo partly drawn)
(A) 0.2

Others:
(Q) Can you share its EC90? I mean this compound: COC(=O)N[C@H](C(=O)N1CCC[C@H]1c1ncc(-c2ccc3c(c2)OC(c2cc(OC)cc(OC)c2)n2c-3cc3cc(-c4cnc([C@@H]5CCCN5C(=O)[C@@H](NC(=O)OC)C(C)C)[nH]4)ccc32)[nH]1)C(C)C (stereo partly drawn)
(A) 0.3

* * *

Below, each of the molecules is paired with its reported EC90 value.
# Test system: Nonstructural protein 5A (Hepatitis C virus), Q5L478 [UNDEFINED MUTATION]
# measurement description: Inhibition of HCV GT1a NS5A L31V mutant assessed as suppression of replicon RNA level by real-time PCR analysis
# cond: Hepatitis C virus subtype 1a
Enter your answer as a number in nM; do not include the unit.

Worked examples follow.
(Q) Data request, read-out EC90, for COC(=O)N[C@H](C(=O)N1C[C@H](F)C[C@H]1c1ncc(-c2ccc3c(c2)OC(c2ccccc2)n2c-3cc3cc(-c4cnc([C@@H]5C[C@@H](F)CN5C(=O)[C@@H](NC(=O)OC)C(C)C)[nH]4)ccc32)[nH]1)C(C)C (mixture of isomers)
(A) 10

(Q) Try this molecule next: COC(=O)N[C@H](C(=O)N1CCC[C@H]1c1ncc(-c2ccc3c(c2)cc2n3C(c3cccc(OC(F)F)c3)Oc3cc(-c4cnc([C@@H]5C[C@@H](F)CN5C(=O)[C@@H](NC(=O)OC)C(C)C)[nH]4)cc(F)c3-2)[nH]1)C(C)C (some centres undefined)
(A) 0.7

(Q) Next entry: COC(=O)N[C@H](C(=O)N1CCC[C@H]1c1ncc(-c2cc(F)c3c(c2)OC(c2cc(Cl)cc(OC)c2)n2c-3cc3cc(-c4cnc([C@@H]5CCCN5C(=O)[C@@H](NC(=O)OC)C(C)C)[nH]4)ccc32)[nH]1)C(C)C (some centres undefined)
(A) 0.1

(Q) # repeat for COC(=O)N[C@H](C(=O)N1CCC[C@H]1c1ncc(-c2cc(F)c3c(c2)OC(c2ccc(OC)cc2)n2c-3cc3cc(-c4cnc([C@@H]5CCCN5C(=O)[C@@H](NC(=O)OC)C(C)C)[nH]4)ccc32)[nH]1)C(C)C (some centres undefined)
(A) 0.2

(Q) Same for COC(=O)N[C@H](C(=O)N1C[C@H](F)C[C@H]1c1ncc(-c2cc(F)c3c(c2)OC(c2cccc(OC)c2)n2c-3cc3cc(-c4cnc([C@@H]5C[C@@H](F)CN5C(=O)[C@@H](NC(=O)OC)C(C)C)[nH]4)ccc32)[nH]1)C(C)C (some centres undefined)
(A) 2

***
(Q) Look at this molecule and give its reported EC90. COC(=O)N[C@H](C(=O)N1CCC[C@H]1c1ncc(-c2cc(F)c3c(c2)OC(c2cc(OC)cc(OC)c2)n2c-3cc3cc(-c4cnc([C@@H]5CCCN5C(=O)[C@@H](NC(=O)OC)C(C)C)[nH]4)ccc32)[nH]1)C(C)C (some centres undefined)
(A) 0.1

(Q) Param item: CCCCOc1cccc(C2Oc3cc(-c4cnc([C@@H]5C[C@@H](F)CN5C(=O)[C@@H](NC(=O)OC)C(C)C)[nH]4)cc(F)c3-c3cc4cc(-c5cnc([C@@H]6C[C@@H](F)CN6C(=O)[C@@H](NC(=O)OC)C(C)C)[nH]5)ccc4n32)c1 (some centres undefined)
(A) 4

(Q) Moving on to COC(=O)N[C@H](C(=O)N1CCC[C@H]1c1ncc(-c2ccc3c(c2)OCn2c-3c(Cc3ccccc3)c3cc(-c4cnc([C@@H]5CCCN5C(=O)[C@@H](NC(=O)OC)C(C)C)[nH]4)ccc32)[nH]1)C(C)C
(A) 9

(Q) Now give it for COC(=O)N[C@H](C(=O)N1CCC[C@H]1c1ncc(-c2cc(F)c3c(c2)OC(c2ccccc2)n2c-3cc3cc(-c4cnc([C@@H]5C[C@@H](F)CN5C(=O)[C@@H](NC(=O)OC)C(C)C)[nH]4)ccc32)[nH]1)C(C)C (mixture of isomers) too.
(A) 2
